- Tested on: Echinochloa crus-galli
- Protocol Description: Herbicidal activity against Echinochloa crus-galli (barnyard grass)
- Type: functional

>  <Structure As Smiles>
CC[C@H]1O[C@@H]2c3ccccc3C(=O)O[C@@H]2[C@H]1OCc1ccccc1C

>  <MIC, µg/mL>
3

$$$$
>  <Structure As Smiles>
CC[C@H]1O[C@@H]2[C@@H](OCc3ccccc3F)[C@@H](CC)O[C@@H]2c2ccccc21

>  <MIC, µg/mL>
0.8

$$$$
>  <Structure As Smiles>
CC[C@H]1O[C@@H]2C[C@](C)(c3ccccc3)O[C@@H]2[C@H]1OCc1ccccc1F

>  <MIC, µg/mL>
0.1

$$$$
>  <Structure As Smiles>
CC[C@H]1O[C@@H]2c3ccccc3CO[C@@H]2[C@H]1OC(C)=O

>  <MIC, µg/mL>
80

$$$$

----------
- Test system: Echinochloa crus-galli
- Protocol Description: Herbicidal activity against Echinochloa crus-galli (barnyard grass)
- Type: functional
Listed here are molecules together with their documented log10(MIC).
Readout Name: log10(MIC) (log10 of the value in µg/mL)

>  <Molecule>
CC[C@H]1O[C@@H]2c3ccccc3CO[C@@H]2[C@H]1OCc1ccccc1

>  <Target Desc>
Echinochloa crus-galli

>  <log10(MIC)>
-0.40

$$$$
>  <Molecule>
CC[C@H]1O[C@@H]2c3ccccc3CO[C@@H]2[C@H]1OC1CCc2ccccc21 (stereo not given in full)

>  <Target Desc>
Echinochloa crus-galli

>  <log10(MIC)>
-0.52

$$$$
>  <Molecule>
CC[C@@H]1O[C@@H]2[C@@H](OCc3ccccc3F)[C@@H](CC)O[C@@H]2c2ccccc21

>  <Target Desc>
Echinochloa crus-galli

>  <log10(MIC)>
-0.40

$$$$
>  <Molecule>
CC[C@H]1O[C@@H]2c3ccccc3CO[C@@H]2[C@H]1OCc1cccc2ccccc12

>  <Target Desc>
Echinochloa crus-galli

>  <log10(MIC)>
1.00

$$$$
>  <Molecule>
CC[C@H]1O[C@@H]2c3sccc3COC2[C@H]1OCc1ccccc1C (single isomer, unassigned)

>  <Target Desc>
Echinochloa crus-galli

>  <log10(MIC)>
-1.00

$$$$
>  <Molecule>
CCc1ccccc1CO[C@@H]1[C@H]2OCc3ccccc3[C@H]2O[C@@H]1CC

>  <Target Desc>
Echinochloa crus-galli

>  <log10(MIC)>
-0.22

$$$$
>  <Molecule>
CC[C@H]1O[C@@H]2c3ccccc3CO[C@@H]2[C@H]1OCc1ccccc1C

>  <Target Desc>
Echinochloa crus-galli

>  <log10(MIC)>
-0.40

$$$$

----------
Listed here are compounds together with their documented MIC.
- Test system: Echinochloa crus-galli
- Protocol Description: Herbicidal activity against Echinochloa crus-galli (barnyard grass)
- Assay type: functional
Readout Name: MIC

>  <Compound>
CC[C@H]1O[C@@H]2c3ccccc3CO[C@@H]2[C@H]1OCc1ccc2ccccc2c1

>  <Readout Name>
MIC

>  <Recorded Measurement>
> 10 µg/mL

$$$$
>  <Compound>
CC[C@H]1O[C@@H]2c3ccccc3CO[C@@H]2[C@H]1O[Si](C)(C)C(C)(C)C

>  <Readout Name>
MIC

>  <Recorded Measurement>
> 100 µg/mL

$$$$
>  <Compound>
CC[C@H]1O[C@@H]2c3ccccc3C(C)(CBr)O[C@@H]2[C@H]1OCc1ccccc1F (stereo partly drawn)

>  <Readout Name>
MIC

>  <Recorded Measurement>
> 3 µg/mL

$$$$
